Experiment: Acute toxicity in rats, subcutaneous injection
Details: rat, in vivo, sc
Test Readout: LD50

What value of measured LD50 is listed for `Cc1nc2ncnn2c2c1CCN2C(C)(C)C` ? ≥ 100 mg/kg
